Catalogue of compounds with associated RP-LC retention time
# experiment: gradient 5% acetonitrile 3 min, to 50% in 2 min, to 85% in 15 min, held 3 min, 100 µL/min
# details: column: Zorbax Extend-C18 2.1 x 50 mm; eluents: water / acetonitrile, 0.1% formic acid
The figure you give is taken to be in s; do not add the unit.

Some entries whose results are on file:
| compound | unit-descriptor | RP-LC retention time |
| --- | --- | --- |
| CCCNc1cc(N2CCC(CCC(=O)NCC)CC2)ncn1 | s | 595 |
| Cc1cccc(Nc2nc(C(=O)NCc3ccc(F)cc3F)cs2)n1 | s | 843 |
| COc1ccccc1CC(=O)N1CCC2(CC1)N=C(c1ccccc1)NO2 | s | 791 |

Q. Kindly indicate its recorded RP-LC retention time. Item: CCc1csc(-c2ccc(N3CCN(C(=O)c4ccc(F)cc4F)CC3)nc2)n1
A. 890

Q. Please report RP-LC retention time for the following compound: CCOc1ccccc1NC(=O)CSc1nnc2c3cc(-c4ccc(F)cc4)nn3ccn12
A. 948

Q. Report measured RP-LC retention time; entry is CCn1c(SC)nnc1-c1nn(C)c2c1CN(C(=O)c1ccccc1)CC2
A. 740

Q. Please give the documented RP-LC retention time of Cc1ccc(NC(=O)C2CCCN(C(=O)C3Sc4ccccc4NC3=O)C2)cc1 (stereo not given)
A. 741

Q. Please indicate RP-LC retention time recorded for COc1ccccc1C(=O)N1c2ccccc2NC(=O)CC1C (stereo not given)
A. 639

Q. State its RP-LC retention time: COCCNC(=O)N1CCCN(C2=NS(=O)(=O)C(c3ccc(Cl)cc3)=C2C)CC1
A. 718

Q. Using known records, supply RP-LC retention time for O=S(=O)(Cc1ccccc1Cl)N(CCc1ccccc1)Cc1ccccn1
A. 950
